# assayed-system: T1, IstA-MBP (Geobacillus stearothermophilus, UniProt Q45618 1-400)
# T1 sequence: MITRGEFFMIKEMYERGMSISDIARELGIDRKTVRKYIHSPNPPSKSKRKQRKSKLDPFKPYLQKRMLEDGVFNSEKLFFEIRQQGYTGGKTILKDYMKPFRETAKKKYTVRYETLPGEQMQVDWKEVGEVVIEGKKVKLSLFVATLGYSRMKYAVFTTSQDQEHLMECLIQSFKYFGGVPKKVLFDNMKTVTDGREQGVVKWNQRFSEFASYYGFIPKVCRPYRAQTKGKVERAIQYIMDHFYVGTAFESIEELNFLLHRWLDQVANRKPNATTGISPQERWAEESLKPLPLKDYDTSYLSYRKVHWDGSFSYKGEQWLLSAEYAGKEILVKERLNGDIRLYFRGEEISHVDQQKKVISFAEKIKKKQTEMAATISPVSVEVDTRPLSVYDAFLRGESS
# test-summary: fluorescence anisotropy; apparent Kd; Hill coefficient 1.2; 5 mM Mg2+; Fluorescence anisotropy: 50 mM HEPES pH 7.5, 150 mM NaCl, 5 mM MgCl2, 10% glycerol, 1 mM beta-mercaptoethanol, 0.1 mg/ml BSA, 5 nM DNA, 37 °C, 5 min
# assay-context: protein: recombinant; tags: C-terminal TEV-cleavable MBP-His6; label: 5'-FAM on strand 1; blunt
recorded-endpoint: Kd (nM)
Answers are plain numbers, in nM.

Data request: Output measured Kd for this item: R1 (27 bp right TIR) (dsDNA) DNA 1: TTGGGGAAAAAATAATCGGCCTTGACA DNA 2: TGTCAAGGCCGATTATTTTTTCCCCAA
Data returned: 176
